Test: Particle size distribution by laser diffraction (Malvern Mastersizer 2000)
Type: physicochemical
Conditions: no unit in Table 4; d values in micrometers, volume distribution
MEASURED_PROPERTY: Dv50 (µm)

[[record]]
compound = "COc1cc2ncc3c(c2cc1-c1cn(C)nc1C)n(-c1c(F)cncc1OC)c(=O)n3C (atropisomer, axis not shown; (Sa)) [Compound 1 Anhydrous Form A2 OPT]"
measured_property = "Dv50"
numeric_value = 64

[[record]]
compound = "COc1cc2ncc3c(c2cc1-c1cn(C)nc1C)n(-c1c(F)cncc1OC)c(=O)n3C (atropisomer, axis not shown; (Sa)) [Compound 1 Anhydrous Form A2]"
measured_property = "Dv50"
numeric_value = 63

